// provenance: paper PMC10796410

- EXPERIMENT: Plasma pharmacokinetics of metformin in rats after a single oral dose, alone or with olaparib (HPLC-UV, non-compartmental)
- Type: in vivo, Wistar rats
- ASSAY CONTEXT: male, Wistar, rat, plasma, oral, t 2 h; IMET+OLA (metformin and olaparib); group mean; read-out: Cmet, S (group mean)
RECORDED ENDPOINT: concentration at 2 h (ng/mL)
// units = ng/mL; emit number, no label

Lookup: Using the record for "CN(C)C(=N)N=C(N)N" , report its concentration at 2 h.
Found: 858

###

- EXPERIMENT: Plasma pharmacokinetics of metformin in rats after a single oral dose, alone or with olaparib (HPLC-UV, non-compartmental)
- Assay type: in vivo, Wistar rats
- ASSAY CONTEXT: male, Wistar, rat, plasma, oral, t 1 h; IMET+OLA (metformin and olaparib); group mean; read-out: Cmet, S (group mean)
RECORDED ENDPOINT: concentration at 1 h (ng/mL)
Answer format: numeric, ng/mL implied, no suffix.

Lookup: Would you kindly share the measured concentration at 1 h for "CN(C)C(=N)N=C(N)N" ?
Found: 968
